The reported measurements were obtained from patent US20260109761A1.

# TARGET_DESC: T1, huZIP12-ECD-GST (human, UniProt Q504Y0 24-202)
# T1 construct: also called hZIP12-ECD-GST; human ZIP12-ECD-GST; not shown: glutathione S-transferase (GST) tag
# TEST_METHOD_NOTES: SPR single cycle kinetics (Biacore): mAb captured on protein A, huZIP12-ECD-GST injected at 3.12-800 nM
Quick reference: Kd of the listed items.
Enter your answer as a number in nM; do not include the unit.

Here is how some binders turned out for Kd.
{"BINDER": "H2_T57H_L2 (antibody, V domains shown, Fc null human IgG1 / human kappa) VH: QVQLVESGGGVVQPGRSLRLSCAASGFTFSDYGMHWVRQAPGKGLEWVAYISSGGTHIYYADTVKGRFTISRDNSKNTLYLQMNSLRAEDTAVYYCARWTNLYAMDYWGQGTTVTVSS VL: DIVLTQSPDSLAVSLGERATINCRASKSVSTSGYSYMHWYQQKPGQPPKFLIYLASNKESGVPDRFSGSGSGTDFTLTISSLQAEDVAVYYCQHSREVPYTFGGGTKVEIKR", "Kd, nM": 0.98}
{"BINDER": "H2_T57H_VL-par (antibody, V domains shown, Fc null human IgG1 / human kappa) VH: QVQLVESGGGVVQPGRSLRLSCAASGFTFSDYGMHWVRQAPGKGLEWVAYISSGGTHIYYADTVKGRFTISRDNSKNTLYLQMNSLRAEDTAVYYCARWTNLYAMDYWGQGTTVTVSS VL: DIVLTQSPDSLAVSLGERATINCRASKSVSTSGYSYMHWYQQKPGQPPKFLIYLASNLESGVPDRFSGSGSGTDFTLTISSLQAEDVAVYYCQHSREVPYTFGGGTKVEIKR", "Kd, nM": 0.791}
{"BINDER": "H3_M105P_L1 (antibody, V domains shown, Fc null human IgG1 / human kappa) VH: QVQLVESGGGVVQPGRSLRLSCAASGFTFSDYGMHWVRQAPGKGLEWVAYISSGGTTIYYADTVKGRFTISRDNSKNTLYLQMNSLRAEDTAVYYCARWTNLYAPDYWGQGTTVTVSS VL: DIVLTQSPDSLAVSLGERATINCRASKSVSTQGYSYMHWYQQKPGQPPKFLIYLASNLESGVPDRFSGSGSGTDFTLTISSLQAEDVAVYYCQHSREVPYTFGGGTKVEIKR", "Kd, nM": 1.55}
{"BINDER": "H3_W99H_VL-par (antibody, V domains shown, Fc null human IgG1 / human kappa) VH: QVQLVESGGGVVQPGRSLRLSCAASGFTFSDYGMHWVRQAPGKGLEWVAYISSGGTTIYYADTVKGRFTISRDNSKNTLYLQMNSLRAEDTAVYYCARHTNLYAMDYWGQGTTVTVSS VL: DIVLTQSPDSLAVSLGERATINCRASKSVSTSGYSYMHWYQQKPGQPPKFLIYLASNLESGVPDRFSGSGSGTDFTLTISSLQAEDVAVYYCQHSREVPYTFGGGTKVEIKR", "Kd, nM": 0.481}

Here's the next entry for you.
Can you share its Kd? I mean this binder: H2_Y60K_L2 (antibody, V domains shown, Fc null human IgG1 / human kappa) VH: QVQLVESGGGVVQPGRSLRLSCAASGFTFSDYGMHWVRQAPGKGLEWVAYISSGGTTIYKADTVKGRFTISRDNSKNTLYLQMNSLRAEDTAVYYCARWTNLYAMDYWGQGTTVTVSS VL: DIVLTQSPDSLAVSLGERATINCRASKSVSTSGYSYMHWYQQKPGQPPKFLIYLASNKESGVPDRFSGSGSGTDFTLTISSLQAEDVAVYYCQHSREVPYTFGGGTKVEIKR
1.11
